Test system: Septoria tritici
assay_summary: Activity against Septoria tritici on wheat (seedlings treated, detached leaf portions on agar inoculated)
Assay type: in vivo
condition_parameters: wheat seedlings in vermiculite, 250 g a.i./100 kg; leaf portions on agar inoculated 7 days after treatment; 18° C., 18 days incubation; control 100
recorded_metric: Infected leaf area (%)
Report as a plain number; the unit % is understood.

>>> df
                         compound_structure  recorded_number
0  Cn1cc(C(=O)Nc2ccccc2-c2cc(F)cc(F)c2)c(C(F)(F)F)n1                0
1  Cn1cc(C(=O)Nc2ccccc2-c2cc(F)c(F)c(F)c2)c(C(F)(F)F)n1                0
2  Cn1cc(C(=O)Nc2ccccc2-c2ccc(SC(F)(F)F)cc2)c(C(F)F)n1                0

Find the recorded Infected leaf area belonging to `Cn1cc(C(=O)Nc2ccc(F)cc2-c2ccc(Cl)c(Cl)c2)c(C(F)F)n1` and report it.
7

Find the recorded Infected leaf area belonging to `Cc1cc(-c2ccccc2NC(=O)c2cn(C)nc2C(F)(F)F)c(F)cc1Cl` and report it.
3

Find the recorded Infected leaf area belonging to `Cn1cc(C(=O)Nc2ccccc2-c2cc(F)c(F)c(F)c2)c(C(F)F)n1` and report it.
3

Find the recorded Infected leaf area belonging to `Cn1cc(C(=O)Nc2ccccc2-c2ccccc2Cl)c(C(F)F)n1` and report it.
0

Find the recorded Infected leaf area belonging to `Cn1cc(C(=O)Nc2ccccc2-c2cc(Cl)ccc2Cl)c(C(F)(F)F)n1` and report it.
3
